These measurements were taken from PubChem BioAssay (NCI).

test system: MDA-MB-468 breast; experiment: NCI-60 one-dose screen, 48 h (100 = growth as untreated, 0 = no growth, -100 = all killed); conditions: 10 µM unless noted
The panel holds about 83,000 compounds, 20% with a hit somewhere; the sample as a whole holds those more often.
experimental.endpoint: growth (%)
Give just the number in %; leave the unit off.

Reference set (5 entries):
compound: Cc1cc(C(N)=O)cc(C)c1C(=O)OCCCl
assayed.system: MDA-MB-468 breast
readout.unit: %
measured.value: 115
//
compound: Cc1cc(N2CCN(c3ccnc4cc(Cl)ccc34)CC2)nc(N2CCOCC2)n1
assayed.system: MDA-MB-468 breast
readout.unit: %
measured.value: 68.7
//
compound: O=C(CSC(=S)n1cnnc1)NC(=O)c1ccccc1
assayed.system: MDA-MB-468 breast
readout.unit: %
measured.value: 119
//
compound: COc1ccc(-c2nc(-c3nc4cc(Cl)c(Cl)cc4[nH]3)c3ccccn23)cc1
assayed.system: MDA-MB-468 breast
readout.unit: %
measured.value: 66.6
//
compound: CNC(=O)c1cc(Oc2ccc3nc(NC(=O)c4ccc5ncccc5c4)sc3c2)ccn1
assayed.system: MDA-MB-468 breast
readout.unit: %
measured.value: 73.7

Enquiry: Item under review: "Cc1ccccc1NC(=O)/C=C/c1ccc(OCCOc2ccc3c(C)cc(=O)oc3c2)cc1" . Reported growth?
Return: 104

Enquiry: Item under review: "COC(=O)[C@H](C(C)C)n1c(=O)c2cc(OC)c(OC)cc2c2cnc3[nH]ccc3c21" . Reported growth?
Return: 36.5

Enquiry: Item under review: COc1cccc(C2CC(=O)Nc3cc4c(cc32)OCO4)c1OC (stereo not given) . Reported growth?
Return: 73.2

Enquiry: Item under review: "O=[N+]([O-])c1cccc(-c2nc3sccn3c2-c2ccnc(NCCCNS(=O)(=O)c3ccc(Cl)cc3)n2)c1" . Reported growth?
Return: 13.1

Enquiry: Item under review: CC(=O)N1c2ccccc2NC2=C(C(=O)NC2(C)C)C1c1ccco1 (stereo not given) . Reported growth?
Return: 65.9

###

system: MDA-MB-468 breast; assay: NCI-60 one-dose screen, 48 h (100 = growth as untreated, 0 = no growth, -100 = all killed); settings: 10 µM unless noted
Compounds without any hit were thinned out: in the full panel of roughly 83,000, 20% have a hit.
In this section we review reported growth values for a set of compounds.
Give just the number in %; leave the unit off.

Enquiry: Item under review: "Cc1cc(Cl)cc(NS(=O)(=O)c2ccc(-c3cnc(C4CC4)o3)cc2)c1" . Reported growth?
Return: 11.3

Enquiry: Item under review: CC(=O)C1CC(C)CCC1C(C)C (stereo not drawn) . Reported growth?
Return: -8.03

Enquiry: Item under review: "Cc1cccc(CC(=O)c2ccccc2)n1" . Reported growth?
Return: 92.8

Enquiry: Item under review: "CCOC(=O)c1ccc2c(c1)[n+](=O)c(C(C)=O)c(C(F)(F)F)n2[O-]" . Reported growth?
Return: -37

Enquiry: Item under review: "COc1ccc(C(=O)O)cc1.[Ag]" . Reported growth?
Return: 93.9

###

tested on: UO-31 renal; assay: NCI-60 one-dose screen, 48 h (100 = growth as untreated, 0 = no growth, -100 = all killed); conditions: 10 µM
About 83,000 compounds went through this panel and 20% of them were active in at least one assay; those are over-represented in the sample as a whole.
Classify on growth using lowest = under 30%, middle = from 30% up to 60%, highest = 60% and over

molecule: CC1(C)CC(=O)C2=C(C1)N(Cc1ccc(C(=O)O)cc1)C1=C(C(=O)CC(C)(C)C1)C2c1ccc(Cl)cc1
assayed.system: UO-31 renal
group.label: highest

molecule: Cc1ccc(COc2ccc(NC(=O)Nc3ccc(Cl)c(C(F)(F)F)c3)cc2)cc1
assayed.system: UO-31 renal
group.label: highest

molecule: Fc1ccc(/C=C/c2nc3ccccc3n3c(-c4ccc(Cl)cc4)nnc23)cc1
assayed.system: UO-31 renal
group.label: middle

molecule: COc1ccc(C2c3sc4ccc(C)cc4c3Oc3nc[nH]c(=O)c32)cc1 (centres undefined)
assayed.system: UO-31 renal
group.label: highest

Enquiry: Place this molecule in its band: "Cn1cc(-c2cc(N)n3nc(-c4cn(C)c5ccccc45)cc3n2)c2cc(F)ccc21"
Return: lowest

Enquiry: Place this molecule in its band: COc1ccc(C2OC[C@@]3(C)C4CC[C@]5(C)C(CC=C6C7CC(C)(C)CC[C@]7(C(=O)O)CC[C@]65C)[C@@]4(C)C[C@@H](O)[C@@H]3O2)cc1 (some centres undefined)
Return: middle

Enquiry: Place this molecule in its band: "O=C(Nc1ccc(OCc2ccc(F)cc2)cc1)Nc1ccc(Cl)c(C(F)(F)F)c1"
Return: lowest
